# system_tested: T1, recombinant human FZD5-Fc chimera (R&D Systems, Catalog no. 1617-FZ) (human, UniProt Q13467 27-167)
# T1 construct: used for selection and ELISA; Fc part of the bought chimera not given
# T1 sequence: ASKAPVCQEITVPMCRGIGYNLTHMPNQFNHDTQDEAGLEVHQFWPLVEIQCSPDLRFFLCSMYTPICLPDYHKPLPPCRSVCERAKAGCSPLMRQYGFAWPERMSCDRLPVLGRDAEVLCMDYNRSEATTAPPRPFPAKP
# assay_name: SPR, Frizzled-Fc chimera;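 further: binding targets are Fc fusions carrying an extracellular Frizzled fragment that contains the CRD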
experimental_endpoint: kon (M⁻¹ s⁻¹)
Give the value in M⁻¹ s⁻¹ but do not write M⁻¹ s⁻¹ after it.

Consider the reported kon for these binders:
binder | kon / M⁻¹ s⁻¹
IgG-2920 (antibody, V domains shown) VH: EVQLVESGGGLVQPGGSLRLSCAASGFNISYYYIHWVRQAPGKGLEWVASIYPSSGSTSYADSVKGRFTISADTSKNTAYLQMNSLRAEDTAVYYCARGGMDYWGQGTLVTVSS VL: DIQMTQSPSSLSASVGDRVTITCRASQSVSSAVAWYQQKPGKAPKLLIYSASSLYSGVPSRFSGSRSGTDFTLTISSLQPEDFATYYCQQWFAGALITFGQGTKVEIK | 3.59e+06
IgG-2919 (antibody, V domains shown, human IgG1 heavy chain (hG1), human kappa light chain (hK)) VH: EVQLVESGGGLVQPGGSLRLSCAASGFNISYSYIHWVRQAPGKGLEWVASIYSSSGSTSYADSVKGRFTISADTSKNTAYLQMNSLRAEDTAVYYCARGAIDYWGQGTLVTVSS VL: DIQMTQSPSSLSASVGDRVTITCRASQSVSSAVAWYQQKPGKAPKLLIYSASSLYSGVPSRFSGSRSGTDFTLTISSLQPEDFATYYCQQWYSSGHVLITFGQGTKVEIKR | 416000
IgG-2921 (antibody, V domains shown) VH: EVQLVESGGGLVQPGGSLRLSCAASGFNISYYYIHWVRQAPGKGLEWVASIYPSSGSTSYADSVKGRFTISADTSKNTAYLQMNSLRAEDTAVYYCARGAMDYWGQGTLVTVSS VL: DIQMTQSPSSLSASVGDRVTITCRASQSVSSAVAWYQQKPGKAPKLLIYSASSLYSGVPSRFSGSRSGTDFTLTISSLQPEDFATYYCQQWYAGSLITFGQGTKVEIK | 922000

Query string: Indicate the recorded kon value for this binder: IgG-2929 (antibody, V domains shown, also called Fv-2929) VH: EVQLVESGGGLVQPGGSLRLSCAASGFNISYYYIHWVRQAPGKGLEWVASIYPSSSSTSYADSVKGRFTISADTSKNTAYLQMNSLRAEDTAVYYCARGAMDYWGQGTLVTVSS VL: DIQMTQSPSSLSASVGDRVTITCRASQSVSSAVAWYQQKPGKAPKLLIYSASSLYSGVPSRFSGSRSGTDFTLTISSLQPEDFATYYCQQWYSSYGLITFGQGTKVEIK
Result string: 2.77e+06

Query string: Provide one value: measured kon of IgG-2910 (antibody, V domains shown) VH: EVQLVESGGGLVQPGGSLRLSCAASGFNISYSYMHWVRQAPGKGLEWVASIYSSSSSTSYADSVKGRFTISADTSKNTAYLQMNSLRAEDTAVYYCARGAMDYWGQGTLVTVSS VL: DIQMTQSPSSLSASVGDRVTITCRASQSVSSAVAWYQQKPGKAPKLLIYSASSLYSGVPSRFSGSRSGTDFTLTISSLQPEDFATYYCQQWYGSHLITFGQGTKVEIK
Result string: 1.52e+06

Query string: Return kon for the following binder: IgG-2916 (antibody, V domains shown) VH: EVQLVESGGGLVQPGGSLRLSCAASGFNISYSSIHWVRQAPGKGLEWVASIYPSYSYTYYADSVKGRFTISADTSKNTAYLQMNSLRAEDTAVYYCARYGYYGMDYWGQGTLVTVSS VL: DIQMTQSPSSLSASVGDRVTITCRASQSVSSAVAWYQQKPGKAPKLLIYSASSLYSGVPSRFSGSRSGTDFTLTISSLQPEDFATYYCQQWYHYPYLITFGQGTKVEIK
Result string: 1.32e+06

These entries and their values trace back to patent US20210253718A1.
